Values compiled from patent US20130303619A1.

test system: LL-37 expression by OBA9 cells; assay: LL-37 expression by OBA9 cells with Sepharose-coupled benzoic acid isomers; assay type: cell-based, human; conditions: isomer coupled to NBS-activated Sepharose gel
quantity: induction of LL-37 expression by OBA9 cells

compound	assay-value
O=C(O)c1c(O)cccc1O [2,6-di-hydroxy benzoic acids, 2,6-dihydroxy benzoic acid, reference compound]	not
O=C(O)c1c(O)cc(O)cc1O [2,4,6-tri-hydroxy benzoic acids, reference compound]	not
